Test system: B. cepacia clinical isolates
Test: Broth microdilution MIC, clinical isolate strains (NAUTICA)
Format: cell-based
Conditions: Table 4B; each table row is one clinical isolate; unit assumed

[
  {
    "compound": "O=C(O)c1sc(-c2ccc(F)cc2)cc1-c1nnn[nH]1 [DNM-141]",
    "system_under_test": "B. cepacia clinical isolates",
    "MIC, B. CEPACIA": "> 16 µg/mL"
  },
  {
    "compound": "Cn1nnc(-c2cc(-c3ccc(F)cc3)sc2C(=O)O)n1 [DNM-142]",
    "system_under_test": "B. cepacia clinical isolates",
    "MIC, B. CEPACIA": "> 16 µg/mL"
  },
  {
    "compound": "CCOC(=O)c1cc(-c2nnn(C)n2)c(-c2ccc(F)cc2)s1 [DNM-125]",
    "system_under_test": "B. cepacia clinical isolates",
    "MIC, B. CEPACIA": "> 16 µg/mL"
  },
  {
    "compound": "Cn1nnnc1-c1cc(-c2ccc(F)cc2)sc1C(=O)O [DNM-143]",
    "system_under_test": "B. cepacia clinical isolates",
    "MIC, B. CEPACIA": "> 8 µg/mL"
  }
]
